Here the recorded TGI is given for each entry.
# System: OVCAR-4 ovarian
# Assay name: NCI tumour cell line growth inhibition, 48 h

These solved cases illustrate the format of a correct answer.
Given smiles | Value observed
O=C(Nc1ccc(-n2cc(-c3ccncc3)c(-c3ccc(O)c(Cl)c3)n2)cc1)c1ccc(Cl)c(Cl)c1 | > 32.5 µM
COc1cc(/C=C2\N=C(c3ccccc3)N(/N=C/c3cc4cc(C)ccc4nc3Cl)C2=O)ccc1O | > 100 µM
CC/C(=C(/CC)c1ccc(OP(=O)([O-])[O-])cc1)c1ccc(OP(=O)([O-])[O-])cc1.N.N.N.N.[Pt+4].[Pt+4] | 7.54 µM

Note: attention shifts to another entry.
(Q) Can you look up the measured TGI of COc1ccc(OC)c(CC(=O)c2ccc(O)c(C(=O)NCCc3ccc(F)cc3)c2)c1 for me?
(A) 31 µM

###

# System: NCI-H460 lung
# Assay name: NCI tumour cell line growth inhibition, 48 h
Here the recorded log10(TGI) is given for each entry.
All values: base-10 log of TGI in µM.

Compound | log10(TGI)
COc1ccc(C2=NN(c3ccc(S(N)(=O)=O)cc3)C(c3ccc(Cl)cc3)C2)c(O)c1 (centres undefined) | 0.78
OCCC#Cc1ccccc1C#Cc1ccccc1 | 1.71

(Q) Can you look up the measured log10(TGI) of COC(=O)[C@@H](COC(=O)/C=C/c1ccc(OC(C)=O)c(OC(C)=O)c1)NC(=O)/C=C/c1ccc(OC(C)=O)c(OC(C)=O)c1 for me?
(A) 1.67

(Q) Can you look up the measured log10(TGI) of CC1OC(OC2C(OC3CCC4(C)C(CCC5(C)C4CC=C4C6CC(C)(C)CCC6(CO)C(O)CC45C)C3(C)C)OC(C(=O)O)C(OC3OC(COC4OC(CO)C(O)C(O)C4O)C(O)C(O)C3O)C2O)C(O)C(O)C1O (centres undefined) for me?
(A) 1.39

(Q) Can you look up the measured log10(TGI) of O=C(/C=C/c1cccnc1)/C=C/c1cccnc1 for me?
(A) 0.86

(Q) Can you look up the measured log10(TGI) of COc1cccc2c(=O)c3c(O)c4cc(N(C)C)ccc4c(OC(C)=O)c3oc12 for me?
(A) 1.70

###

# Test system: RPMI-8226 leukemia
# Assay name: NCI tumour cell line growth inhibition, 48 h
Where a SMILES comes first, the peptide text is derived from it. The star is where a group is joined. Cbz = O=C(OCc1ccccc1)*; Boc = CC(C)(C)OC(=O)*; OBn = c1ccc(CO*)cc1
Test readout: TGI

These solved cases illustrate the format of a correct answer.
Compound | Experimental system | Test readout | Value observed
N=C1SCCS1 | RPMI-8226 leukemia | TGI | > 100 µM
Cn1cccc1C1CC(=O)N(CCC[Se]C#N)C1=O (stereo not given) | RPMI-8226 leukemia | TGI | 5.04 µM
C/C=C(\C)C(=O)O[C@@H]1C=CC(=O)O[C@H]1COC(=O)[C@H](C)O | RPMI-8226 leukemia | TGI | 44.2 µM

(Q) Can you look up the measured TGI of COC(=O)C1(Cc2ccccc2C)Cc2ccc(C)cc2C1=O (stereo not given) for me?
(A) 32.2 µM

(Q) Can you look up the measured TGI of COC12c3ccccc3-c3ccccc3C1[C@@H](C(=O)O)[C@H]2C(=O)O (stereo not given in full) for me?
(A) > 10 µM

(Q) Can you look up the measured TGI of c1ncc(C23C4C5C6C4C2C6C53)[nH]1 (stereo not given) for me?
(A) > 100 µM

(Q) Can you look up the measured TGI of CCOC(=O)/C(=C/c1c(-c2ccccc2)[nH]c2ccccc12)C(=O)c1ccc(Cl)cc1 for me?
(A) > 100 µM

(Q) Can you look up the measured TGI of Cc1oc2nc(N(C)C)n3c(C)nnc3c2c1C for me?
(A) > 100 µM

(Q) Can you look up the measured TGI of Cc1ccc(C)c(NC(=O)CCC(=O)CC(=O)C(C)(C)C)c1 for me?
(A) > 100 µM

(Q) Can you look up the measured TGI of COC(=O)C(CCCCNC(=O)OCc1ccccc1)NC(=O)C(CCC(=O)OCc1ccccc1)NC(=O)OC(C)(C)C (stereo not given) (Boc-Glu(OBn)-Lys(Cbz)-OMe; configuration not given here) for me?
(A) > 100 µM

###

# Test system: PC-3 prostate
# Assay name: NCI tumour cell line growth inhibition, 48 h; in the data active means GI50 below about 0.43 µM; inactive means the rest
Pick from active, inactive when you respond.

Compound | Experimental system | Discrete label
c1ccc(COc2ccc(Nc3ncnc4ccc(-c5ccco5)cc34)cc2)cc1 | PC-3 prostate | inactive
Cn1cccc1C1CC(=O)N(CCC[Se]C#N)C1=O (stereo not drawn) | PC-3 prostate | inactive
CCN(CC)c1ccc(/C=C/C2=[N+](C)c3ccccc3C2(C)C)cc1 | PC-3 prostate | active
Nc1nccc(C#Cc2cncnc2Nc2ccc(OCc3cccc(F)c3)c(Cl)c2)n1 | PC-3 prostate | inactive
O=C1c2cccnc2-c2nc(-c3ccccc3)cc3c2c1nc1ccccc13 | PC-3 prostate | inactive
CC1(C)CCC(CN2CCN(c3ccc(C(=O)NS(=O)(=O)c4ccc(NCC5CCOCC5)c([N+](=O)[O-])c4)c(Oc4cnc5[nH]ccc5c4)c3)CC2)=C(c2ccc(Cl)cc2)C1 | PC-3 prostate | inactive

(Q) I would be grateful if you could indicate the recorded call for C/C(=N\NC(=S)Nc1ccccc1)c1ccccn1 .
(A) active

(Q) I would be grateful if you could indicate the recorded call for Cn1cc(-c2csc(-c3cn(C)c4ncccc34)n2)c2ccccc21 .
(A) active

(Q) I would be grateful if you could indicate the recorded call for Oc1ccc(-c2nc(-c3ccc(F)cc3)c(-c3ccncc3)[nH]2)cc1 .
(A) inactive

(Q) I would be grateful if you could indicate the recorded call for COc1cc(-c2cn(-c3ccc(Cl)cc3)c(=O)n2-c2ccccc2)cc(OC)c1OC .
(A) inactive

(Q) I would be grateful if you could indicate the recorded call for Cn1cc(-c2ccc3c(c2)ncn3-c2ccc(CC(=O)Nc3cc(C(C)(C)C)on3)cc2)cn1 .
(A) inactive

(Q) I would be grateful if you could indicate the recorded call for C[C@@H](Oc1cc(-n2cnc3ccc(OCC4CCN(C)CC4)cc32)sc1C(N)=O)c1ccccc1C(F)(F)F .
(A) active

(Q) I would be grateful if you could indicate the recorded call for CCN1C(=O)N(CC)C2C1NN=c1s/c(=C\c3ccc([N+](=O)[O-])cc3)c(=O)n12 (stereo not drawn) .
(A) active

###

Here the recorded TGI is given for each entry.
# System: MDA-MB-231 breast
# Assay name: NCI tumour cell line growth inhibition, 48 h

These solved cases illustrate the format of a correct answer.
Given smiles | Experimental system | TGI
O=C(O)Cc1ccccc1 | MDA-MB-231 breast | > 2000 µM
S=c1nc(/C=C/c2ccc(Cl)c(Cl)c2)[nH][nH]1 | MDA-MB-231 breast | > 100 µM
CC1(C)O[C@@H]([C@@H](O)[C@H](O)C2SCCCS2)[C@@H](CO)O1 | MDA-MB-231 breast | > 100 µM

(Q) For the record CSc1nc2ccccc2c(=O)n1-c1cccc(C)c1 , what value of TGI is listed for MDA-MB-231 breast?
(A) > 100 µM

(Q) For the record Cc1oc2nc(N(C)C)n3c(C)nnc3c2c1C , what value of TGI is listed for MDA-MB-231 breast?
(A) > 100 µM

(Q) For the record CCOC(=O)c1cc(NC(=O)c2ccccc2)c(=O)n2c(cc3c(Cl)cccc32)c1O , what value of TGI is listed for MDA-MB-231 breast?
(A) > 100 µM

###

# Test system: OVCAR-3 ovarian
# Assay name: NCI tumour cell line growth inhibition, 48 h
Test readout: TGI

Compound | Experimental system | TGI
O=S(=O)(Nc1ccc2ccc3cccc4ccc1c2c34)c1ccccc1 | OVCAR-3 ovarian | 48.9 µM
c1ccc2c(c1)SCCCSCCCS2 | OVCAR-3 ovarian | > 100 µM

(Q) Can you look up the measured TGI of COc1cc(-c2c(C(C)=O)c(-c3ccccc3)n(C3OC(COC(C)=O)C(OC(C)=O)C(OC(C)=O)C3OC(C)=O)c(=S)c2C#N)ccc1O (stereo not drawn) for me?
(A) > 100 µM

(Q) Can you look up the measured TGI of C1=C(N2CCOCC2)/C(=C2\SC(=Nc3ccccc3)C(=Nc3ccccc3)N2c2ccccc2)CC1 for me?
(A) > 100 µM

(Q) Can you look up the measured TGI of Nc1ncn([C@@H]2C=C(CO)C(O)C2O)c(=O)n1 (stereo partly drawn) for me?
(A) > 100 µM

(Q) Can you look up the measured TGI of CC1OC(OC2C(OC3CCC4(C)C(CCC5(C)C4CC=C4C6CC(C)(C)CCC6(CO)C(O)CC45C)C3(C)C)OC(C(=O)O)C(OC3OC(COC4OC(CO)C(O)C(O)C4O)C(O)C(O)C3O)C2O)C(O)C(O)C1O (stereo not drawn) for me?
(A) 24.7 µM

(Q) Can you look up the measured TGI of COC1C2c3ccccc3C(C#N)(Cc3ccc4c(c32)OCO4)N1C(=O)c1ccccc1 (stereo not drawn) for me?
(A) > 100 µM

(Q) Can you look up the measured TGI of C/C=C(\C)C(=O)O[C@@H]1C=CC(=O)O[C@H]1COC(=O)[C@H](C)O for me?
(A) 27.6 µM
